Data provenance: the supplement of paper PMC11061612

Entries and their Bliss excess values follow.
- Tested on: JIMT-1 (Breast Carcinoma)
- experiment: Bliss excess, mean over the matrix (fraction); higher = more synergy
Would you mind answering with just the numeric figure?

- molecule: "Cc1c2c(nn1C)CSCc1cc(n(C)n1)CSc1cc(c3ccccc3c1)OCCCc1c(C(=O)O)n(C)c3c-2c(Cl)ccc13 [AZD5991] + C[C@@H]1COCCN1C2=NC(=NC(=C2)C3(CC3)[S@](=N)(=O)C)C4=C5C=CNC5=NC=C4 [AZD6738] (first compound max 1 µM, 7x7, partner max 10 µM)"
  Bliss excess: 0.0789
- molecule: "Cn1cnc2c(F)c(Nc3ccc(Br)cc3Cl)c(C(=O)NOCCO)cc21 [Selumetinib] + CCN(CCO)CCCOc1ccc2c(Nc3cc(CC(=O)Nc4cccc(F)c4)[nH]n3)ncnc2c1 [AZD2811] (first compound max 10 µM, 7x7, partner max 1 µM)"
  Bliss excess: -0.0403
- molecule: "Cc1cc2ncnn2cc1Nc1ncc2c(n1)n(C1CCOCC1)c(=O)n2C [AZD7648] + CN(C)CCCOc1ccc(-c2ccc3ncc4c(c3c2)n(C2CCOCC2)c(=O)n4C)cn1 [AZD0156] (first compound max 10 µM, 7x7, partner max 1 µM)"
  Bliss excess: 0.0217

So what's the measured Bliss excess for this one? Cc1c2c(nn1C)CSCc1cc(n(C)n1)CSc1cc(c3ccccc3c1)OCCCc1c(C(=O)O)n(C)c3c-2c(Cl)ccc13 [AZD5991] + Cc1cc2ncnn2cc1Nc1ncc2c(n1)n(C1CCOCC1)c(=O)n2C [AZD7648] (first compound max 1 µM, 7x7, partner max 10 µM) -0.0541

---

- Tested on: UACC-812 (Breast Carcinoma)
- experiment: Bliss excess, mean over the matrix (fraction); higher = more synergy
// reported Bliss excess per item

- compound: "CC1(C)CCC(CN2CCN(c3ccc(C(=O)NS(=O)(=O)c4ccc(NCC5CCOCC5)c([N+](=O)[O-])c4)c(Oc4cnc5[nH]ccc5c4)c3)CC2)=C(c2ccc(Cl)cc2)C1 [Venetoclax] + CCN(CCO)CCCOc1ccc2c(Nc3cc(CC(=O)Nc4cccc(F)c4)[nH]n3)ncnc2c1 [AZD2811] (first compound max 1 µM, 7x7, partner max 1 µM)"
  Bliss excess: -0.0283
- compound: "CC1(C)CCC(CN2CCN(c3ccc(C(=O)NS(=O)(=O)c4ccc(NCC5CCOCC5)c([N+](=O)[O-])c4)c(Oc4cnc5[nH]ccc5c4)c3)CC2)=C(c2ccc(Cl)cc2)C1 [Venetoclax] + C=CCn1c(=O)c2cnc(Nc3ccc(N4CCN(C)CC4)cc3)nc2n1-c1cccc(C(C)(C)O)n1 [AZD1775] (first compound max 1 µM, partner max 1 µM)"
  Bliss excess: -0.0681

--- query ---
Return reported Bliss excess; argument: COc1cccc(OCCCN)c1-c1cc(Nc2cnc(C#N)cn2)n[nH]1 [Prexasertib] + C[C@@H]1COCCN1C2=NC(=NC(=C2)C3(CC3)[S@](=N)(=O)C)C4=C5C=CNC5=NC=C4 [AZD6738] (first compound max 1 µM, 7x7, partner max 10 µM) 0.049

---

- System: EPLC-272H (Other Solid Carcinomas)
- experiment: Bliss excess, mean over the matrix (fraction); higher = more synergy
Binning of Bliss excess into classes: band 1 (below -0.03), band 2 (-0.03 to below 0.06), band 3 (0.06 or more)

- molecule: "Cc1cc2ncnn2cc1Nc1ncc2c(n1)n(C1CCOCC1)c(=O)n2C [AZD7648] + C[C@@H]1COCCN1C2=NC(=NC(=C2)C3(CC3)[S@](=N)(=O)C)C4=C5C=CNC5=NC=C4 [AZD6738] (first compound max 10 µM, 7x7, partner max 10 µM)"
  assignedLabel: "band 2"
- molecule: "NC1(C(=O)N[C@@H](CCO)c2ccc(Cl)cc2)CCN(c2ncnc3[nH]ccc23)CC1 [Capivasertib] + Cn1cnc2c(F)c(Nc3ccc(Br)cc3Cl)c(C(=O)NOCCO)cc21 [Selumetinib] (first compound max 10 µM, 7x7, partner max 10 µM)"
  assignedLabel: "band 3"
- molecule: "CN(CCO)CC[C@H](CSc1ccccc1)Nc1ccc(S(=O)(=O)NC(=O)c2ccc(N3CCC([C@@H](O)c4ccccc4-c4ccc(Cl)cc4)CC3)cc2)cc1S(=O)(=O)C(F)(F)F [AZD4320] + C[C@@H](Nc1cc(F)cc(F)c1)c1cc(C(=O)N(C)C)cc2c(=O)cc(N3CCOCC3)oc12 [AZD8186] (first compound max 1 µM, 7x7, partner max 3 µM)"
  assignedLabel: "band 3"

GET /class?item= CCN(CCO)CCCOc1ccc2c(Nc3cc(CC(=O)Nc4cccc(F)c4)[nH]n3)ncnc2c1 [AZD2811] + C=CCn1c(=O)c2cnc(Nc3ccc(N4CCN(C)CC4)cc3)nc2n1-c1cccc(C(C)(C)O)n1 [AZD1775] (first compound max 1 µM, partner max 1 µM) band 1

Band for NC1(C(=O)N[C@@H](CCO)c2ccc(Cl)cc2)CCN(c2ncnc3[nH]ccc23)CC1 [Capivasertib] + CCN(CCO)CCCOc1ccc2c(Nc3cc(CC(=O)Nc4cccc(F)c4)[nH]n3)ncnc2c1 [AZD2811] (first compound max 10 µM, 7x7, partner max 1 µM) ? band 2

The entry to classify is CS(=O)(=O)CCNCc1ccc(-c2ccc3ncnc(Nc4ccc(OCc5cccc(F)c5)c(Cl)c4)c3c2)o1 [Lapatinib] + C[C@@H](Oc1cc(-c2cnn(C3CCNCC3)c2)cnc1N)c1c(Cl)ccc(F)c1Cl [Crizotinib] (first compound max 10 µM, 7x7, partner max 10 µM) ; which class holds it? band 2

Sort into band: CC(=O)c1c(C)c2cnc(Nc3ccc(N4CCNCC4)cn3)nc2n(C2CCCC2)c1=O [Palbociclib] + Cc1c2c(nn1C)CSCc1cc(n(C)n1)CSc1cc(c3ccccc3c1)OCCCc1c(C(=O)O)n(C)c3c-2c(Cl)ccc13 [AZD5991] (first compound max 10 µM, 7x7, partner max 1 µM) band 1

Place this molecule in its band: C[C@@H](c1ccc2nccn2c1)n1nnc2ncc(-c3cnn(C)c3)nc21 [Savolitinib] + CN(CC[C@H](CSC1=CC=CC=C1)NC2=C(C=C(C=C2)S(=O)(=O)NC(=O)C3=CC=C(C=C3)N4CCC(CC4)[C@H](C5=CC=CC=C5C6=CC=C(C=C6)Cl)O)S(=O)(=O)C(F)(F)F)CCO [AZD4320] (first compound max 1 µM, 7x7, partner max 1 µM) band 1

Which bin, given its Bliss excess, does Cc1c2c(nn1C)CSCc1cc(n(C)n1)CSc1cc(c3ccccc3c1)OCCCc1c(C(=O)O)n(C)c3c-2c(Cl)ccc13 [AZD5991] + CCN(CCO)CCCOc1ccc2c(Nc3cc(CC(=O)Nc4cccc(F)c4)[nH]n3)ncnc2c1 [AZD2811] (first compound max 1 µM, 7x7, partner max 1 µM) occupy? band 3

---

- Tested on: A2780 (Ovarian Carcinoma)
- experiment: combination Emax (second highest fraction inhibited in the dose matrix, 72 h); higher = more inhibition; extreme values may be limits of the assay
observationType: combination Emax
The reply should be a number, written without any unit.

Returns the measured combination Emax for the input compound. Input: CC1(C)CCC(CN2CCN(c3ccc(C(=O)NS(=O)(=O)c4ccc(NCC5CCOCC5)c([N+](=O)[O-])c4)c(Oc4cnc5[nH]ccc5c4)c3)CC2)=C(c2ccc(Cl)cc2)C1 [Venetoclax] + COc1cc(Nc2ncc3c(n2)-c2ccc(Cl)cc2C(c2c(F)cccc2OC)=NC3)ccc1C(=O)O [Alisertib] (first compound max 1 µM, 7x7, partner max 10 µM) 0.709

---

Catalogue of Bliss excess readings, one per entry.
- Tested on: NCI-H441 (Lung Adenocarcinoma)
- experiment: Bliss excess, mean over the matrix (fraction); higher = more synergy

- compound: "Cc1c2c(nn1C)CSCc1cc(n(C)n1)CSc1cc(c3ccccc3c1)OCCCc1c(C(=O)O)n(C)c3c-2c(Cl)ccc13 [AZD5991] + CC(=O)O[C@H]1C(=O)[C@@]2(C)[C@H]([C@H](OC(=O)c3ccccc3)[C@]3(O)C[C@H](OC(=O)[C@H](O)[C@@H](NC(=O)c4ccccc4)c4ccccc4)C(C)=C1C3(C)C)[C@]1(OC(C)=O)CO[C@@H]1C[C@@H]2O [Paclitaxel] (first compound max 1 µM, 7x7, partner max 3 µM)"
  studySystem: "NCI-H441 (Lung Adenocarcinoma)"
  recordedValue: -0.0193
- compound: "Cc1cc2ncnn2cc1Nc1ncc2c(n1)n(C1CCOCC1)c(=O)n2C [AZD7648] + C=CCn1c(=O)c2cnc(Nc3ccc(N4CCN(C)CC4)cc3)nc2n1-c1cccc(C(C)(C)O)n1 [AZD1775] (first compound max 10 µM, partner max 1 µM)"
  studySystem: "NCI-H441 (Lung Adenocarcinoma)"
  recordedValue: 0.0059

Consider the additional compound presented here.
Recorded Bliss excess for COc1cccc2c1C(=O)c1c(O)c3c(c(O)c1C2=O)C[C@@](O)(C(=O)CO)C[C@@H]3O[C@H]1C[C@H](N)[C@H](O)[C@H](C)O1 [Doxorubicin] + Cc1cc2ncnn2cc1Nc1ncc2c(n1)n(C1CCOCC1)c(=O)n2C [AZD7648] (first compound max 1 µM, 7x7, partner max 10 µM) with NCI-H441 (Lung Adenocarcinoma), please? 0.0125
